test system: hLiMTs; experiment: Combined HCI (HCS) and cellular ATP 3D assay in hLiMTs; details: Homo sapiens, read-out: ATP endpoint AC50

{"compound": "CN(C)CCC(c1ccc(Cl)cc1)c1ccccn1 (stereo not drawn)", "experimentalTarget": "hLiMTs", "measureUnit": "µM", "AC50": 30.9}
{"compound": "CS(=O)(=O)CCNCc1ccc(-c2ccc3ncnc(Nc4ccc(OCc5cccc(F)c5)c(Cl)c4)c3c2)o1", "experimentalTarget": "hLiMTs", "measureUnit": "µM", "AC50": 30.1}
{"compound": "N[C@@H]1[C@H]2CN(c3nc4c(cc3F)c(=O)c(C(=O)O)cn4-c3ccc(F)cc3F)C[C@@H]12", "experimentalTarget": "hLiMTs", "measureUnit": "µM", "AC50": 29.4}

###

test system: HepaRG spheroids; experiment: Combined HCI (HCS) and cellular ATP 3D assay in HepaRG spheroids; details: HepaRG; all endpoints; Cmax min used
quantityMeasured: HepaRG Cmax min All

{"compound": "N[C@@H]1[C@H]2CN(c3nc4c(cc3F)c(=O)c(C(=O)O)cn4-c3ccc(F)cc3F)C[C@@H]12", "quantityMeasured": "HepaRG Cmax min All", "valueMeasured": "+ve"}
{"compound": "Cc1ccc(N(CC2=NCCN2)c2cccc(O)c2)cc1", "quantityMeasured": "HepaRG Cmax min All", "valueMeasured": "-ve"}
{"compound": "Clc1ccccc1CN1CCc2sccc2C1", "quantityMeasured": "HepaRG Cmax min All", "valueMeasured": "+ve"}
{"compound": "CC(=O)Nc1ccc(O)cc1", "quantityMeasured": "HepaRG Cmax min All", "valueMeasured": "+ve"}
{"compound": "NC(=O)N1c2ccccc2C=Cc2ccccc21 [carbamazepine, reference compound]", "quantityMeasured": "HepaRG Cmax min All", "valueMeasured": "+ve"}

###

test system: hLiMTs; test: Combined HCI (HCS) and cellular ATP 3D assay in hLiMTs; settings: hLiMTs; all endpoints (ATP and HCS); cut-off <25x Avg Cmax

{"compound": "CC(=O)Nc1ccc(O)cc1", "hLiMTs <25x Avg Cmax All": "+ve"}
{"compound": "O=C1CN(/N=C/c2ccc(-c3ccc([N+](=O)[O-])cc3)o2)C(O)=N1", "hLiMTs <25x Avg Cmax All": "+ve"}
{"compound": "CCOC(=O)c1ncn2c1CN(C)C(=O)c1cc(F)ccc1-2 [flumazenil, reference compound]", "hLiMTs <25x Avg Cmax All": "-ve"}
{"compound": "CCN(CC)CC#CCOC(=O)C(O)(c1ccccc1)C1CCCCC1 (stereo not shown)", "hLiMTs <25x Avg Cmax All": "-ve"}
{"compound": "COc1ccc2c(c1)c(CC(=O)O)c(C)n2C(=O)c1ccc(Cl)cc1", "hLiMTs <25x Avg Cmax All": "+ve"}
{"compound": "CC(=O)Oc1ccccc1C(=O)O", "hLiMTs <25x Avg Cmax All": "+ve"}
{"compound": "C#CCN(C)Cc1ccccc1", "hLiMTs <25x Avg Cmax All": "-ve"}
{"compound": "CN(C)C(=N)N=C(N)N", "hLiMTs <25x Avg Cmax All": "+ve"}
{"compound": "COc1ccccc1Oc1c(NS(=O)(=O)c2ccc(C(C)(C)C)cc2)nc(-c2ncccn2)nc1OCCO", "hLiMTs <25x Avg Cmax All": "+ve"}
{"compound": "NNC(=O)c1ccncc1 [isoniazid, reference compound]", "hLiMTs <25x Avg Cmax All": "-ve"}
{"compound": "Cc1c(-c2ccccc2)oc2c(C(=O)OCCN3CCCCC3)cccc2c1=O [flavoxate]", "hLiMTs <25x Avg Cmax All": "-ve"}
{"compound": "N[C@@H](Cc1cc(I)c(Oc2ccc(O)c(I)c2)c(I)c1)C(=O)O", "hLiMTs <25x Avg Cmax All": "-ve"}
{"compound": "CN(Cc1cnc2nc(N)nc(N)c2n1)c1ccc(C(=O)N[C@@H](CCC(=O)O)C(=O)O)cc1 [methotrexate, reference compound]", "hLiMTs <25x Avg Cmax All": "+ve"}
{"compound": "C1CCC(C(CC2CCCCN2)C2CCCCC2)CC1 (stereo not shown)", "hLiMTs <25x Avg Cmax All": "+ve"}
{"compound": "Nc1cc(N2CCCCC2)nc(N)[n+]1[O-]", "hLiMTs <25x Avg Cmax All": "-ve"}
{"compound": "C[N+](C)(C)CC(=O)O [betaine, reference compound]", "hLiMTs <25x Avg Cmax All": "-ve"}
